- Subject Of Test: glucagon receptor (human, UniProt P47871 26-477)
- Sequence (P47871 26-477): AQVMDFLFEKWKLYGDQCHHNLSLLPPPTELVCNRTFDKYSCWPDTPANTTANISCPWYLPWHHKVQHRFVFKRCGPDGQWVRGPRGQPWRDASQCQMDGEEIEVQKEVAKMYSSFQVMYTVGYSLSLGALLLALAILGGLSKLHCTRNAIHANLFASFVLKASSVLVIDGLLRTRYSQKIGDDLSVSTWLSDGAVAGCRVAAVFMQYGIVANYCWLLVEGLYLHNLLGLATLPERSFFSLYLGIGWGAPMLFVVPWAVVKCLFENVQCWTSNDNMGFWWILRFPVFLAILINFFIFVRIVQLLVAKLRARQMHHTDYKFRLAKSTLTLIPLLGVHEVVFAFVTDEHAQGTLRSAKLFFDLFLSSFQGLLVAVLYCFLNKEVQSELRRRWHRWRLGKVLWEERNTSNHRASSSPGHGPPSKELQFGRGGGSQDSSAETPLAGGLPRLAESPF
- Test Method Notes: cell-based or functional assay
Non-standard residues stand in square brackets, D forms with d. Groups on a side chain read outwards from the residue. Primed or numbered codes have the meaning given here. No end group written: not given here. *: point of attachment. Stearoyl = CCCCCCCCCCCCCCCCCC(=O)*; αMeF = C[C@](N)(Cc1ccccc1)C(=O)O; αMeK = C[C@](N)(CCCCN)C(=O)O; αMeS = C[C@](N)(CO)C(=O)O; PEG2′ = not defined here; Aib = CC(C)(N)C(=O)O
Quantity Measured: Primary assay EC50 (cAMP), n1 (nM)

H[Aib]EGS[αMeF]TSDVSK([PEG2′-PEG2′-PEG2′-Stearoyl])YLEGEAA[Aib]E[αMeF]IA[αMeF]VVEGG-NH2 [SEQ ID NO 63] ... 25.7

a = HXEGTFTSDVSSYLEGQAAKEFIAWLVKGR (Aib 2; α-MeSer 8; C-terminal amide) [SEQ ID NO 19]
b = H[Aib]EGS[αMeF]TSDV[αMeS]S[αMeF]LEGEAAK([PEG2′-PEG2′-PEG2′-Stearoyl])E[αMeF]IAWVV[αMeK]GG-NH2 [SEQ ID NO 55]
Which is greater in Primary assay EC50 (cAMP), n1, the first item a or the second item b ? Please identify the chosen entry by its label.
a
(a: 130 nM, b: 25 nM)
